experimental-protocol: Intravenous pharmacokinetics in rats
Assay type: in vivo
assay-setup: male, Sprague Dawley, rat, plasma, iv, 1 mg/kg, CL, male rats, 1 mg/kg IV, GeoMean (third rat excluded)
measure-name: clearance (mL/min/kg)
Write the answer as a number in mL/min/kg, unit excluded.

Lab book: clearance of C[C@]12CC[C@H](n3ccnc3)CC1=CC[C@@H]1[C@@H]2CC[C@]2(C)C(n3cnc4ccccc43)=CC[C@@H]12 noted as 6.97

----------
experimental-protocol: Intravenous pharmacokinetics in rats
Assay type: in vivo
assay-setup: female, Sprague Dawley, rat, plasma, iv, 1 mg/kg, CL, female rats, 1 mg/kg IV, individual rat
measure-name: clearance (mL/min/kg)
Write the answer as a number in mL/min/kg, unit excluded.

Lab book: clearance of C[C@]12CC[C@H](n3ccnc3)CC1=CC[C@@H]1[C@@H]2CC[C@]2(C)C(n3cnc4ccccc43)=CC[C@@H]12 [Compound 2] noted as 4.04

----------
experimental-protocol: Intravenous pharmacokinetics in rats
Type: in vivo
assay-setup: female, Sprague Dawley, rat, plasma, iv, 1 mg/kg, AUClast, female rats, 1 mg/kg IV, individual rat
measure-name: AUC(0-t) (ng·h/mL)
Write the answer as a number in ng·h/mL, unit excluded.

Lab book: AUC(0-t) of C[C@]12CC[C@H](n3ccnc3)CC1=CC[C@@H]1[C@@H]2CC[C@]2(C)C(n3cnc4ccccc43)=CC[C@@H]12 noted as 2800

----------
experimental-protocol: Intravenous pharmacokinetics in rats
Type: in vivo
assay-setup: male, Sprague Dawley, rat, plasma, iv, 1 mg/kg, Cmax, male rats, 1 mg/kg IV, individual rat
measure-name: Cmax

Lab book: Cmax of C[C@]12CC[C@H](n3ccnc3)CC1=CC[C@@H]1[C@@H]2CC[C@]2(C)C(n3cnc4ccccc43)=CC[C@@H]12 noted as 237 ng/mL

----------
experimental-protocol: Oral pharmacokinetics and bioavailability in rats
Assay type: in vivo
assay-setup: male, Sprague Dawley, rat, plasma, po, 50 mg/kg, AUClast, male rats, 50 mg/kg PO, GeoMean
measure-name: AUC(0-t) (ng·h/mL)
Write the answer as a number in ng·h/mL, unit excluded.

Lab book: AUC(0-t) of C[C@]12CC[C@H](n3ccnc3)CC1=CC[C@@H]1[C@@H]2CC[C@]2(C)C(n3cnc4ccccc43)=CC[C@@H]12 noted as 56200

----------
experimental-protocol: Intravenous pharmacokinetics in rats
Type: in vivo
assay-setup: female, Sprague Dawley, rat, plasma, iv, 1 mg/kg, T1/2, female rats, 1 mg/kg IV, GeoMean
measure-name: half-life (h)
Write the answer as a number in h, unit excluded.

Lab book: half-life of C[C@]12CC[C@H](n3ccnc3)CC1=CC[C@@H]1[C@@H]2CC[C@]2(C)C(n3cnc4ccccc43)=CC[C@@H]12 noted as 14.3

----------
experimental-protocol: Oral pharmacokinetics and bioavailability in rats
Type: in vivo
assay-setup: both, Sprague Dawley, rat, plasma, po, 10 mg/kg
measure-name: bioavailability

Lab book: bioavailability of C[C@]12CC[C@H](n3ccnc3)CC1=CC[C@@H]1[C@@H]2CC[C@]2(C)C(n3cnc4ccccc43)=CC[C@@H]12 noted as 32 to 34%

----------
experimental-protocol: Intravenous pharmacokinetics in rats
Type: in vivo
assay-setup: male, Sprague Dawley, rat, plasma, iv, 1 mg/kg, AUCinf, male rats, 1 mg/kg IV, GeoMean (third rat excluded)
measure-name: AUC(0-inf) (ng·h/mL)
Write the answer as a number in ng·h/mL, unit excluded.

Lab book: AUC(0-inf) of C[C@]12CC[C@H](n3ccnc3)CC1=CC[C@@H]1[C@@H]2CC[C@]2(C)C(n3cnc4ccccc43)=CC[C@@H]12 noted as 2380

----------
experimental-protocol: Oral pharmacokinetics and bioavailability in rats
Type: in vivo
assay-setup: male, Sprague Dawley, rat, plasma, po, 10 mg/kg, AUClast, male rats, 10 mg/kg PO, individual rat
measure-name: AUC(0-t) (ng·h/mL)
Write the answer as a number in ng·h/mL, unit excluded.

Lab book: AUC(0-t) of C[C@]12CC[C@H](n3ccnc3)CC1=CC[C@@H]1[C@@H]2CC[C@]2(C)C(n3cnc4ccccc43)=CC[C@@H]12 [Compound 2] noted as 8650

----------
experimental-protocol: Oral pharmacokinetics and bioavailability in rats
Type: in vivo
assay-setup: female, Sprague Dawley, rat, plasma, po, 10 mg/kg, Cmax, female rats, 10 mg/kg PO, GeoMean
measure-name: Cmax (ng/mL)
Write the answer as a number in ng/mL, unit excluded.

Lab book: Cmax of C[C@]12CC[C@H](n3ccnc3)CC1=CC[C@@H]1[C@@H]2CC[C@]2(C)C(n3cnc4ccccc43)=CC[C@@H]12 noted as 594

----------
experimental-protocol: Oral pharmacokinetics and bioavailability in rats
Format: in vivo
assay-setup: male, Sprague Dawley, rat, plasma, po, 50 mg/kg, Vz/F, male rats, 50 mg/kg PO, individual rat
measure-name: Vd/F

Lab book: Vd/F of C[C@]12CC[C@H](n3ccnc3)CC1=CC[C@@H]1[C@@H]2CC[C@]2(C)C(n3cnc4ccccc43)=CC[C@@H]12 noted as 14.4 L/kg

----------
experimental-protocol: Intravenous pharmacokinetics in rats
Assay type: in vivo
assay-setup: female, Sprague Dawley, rat, plasma, iv, 1 mg/kg, Vss, female rats, 1 mg/kg IV, GeoMean
measure-name: Vd

Lab book: Vd of C[C@]12CC[C@H](n3ccnc3)CC1=CC[C@@H]1[C@@H]2CC[C@]2(C)C(n3cnc4ccccc43)=CC[C@@H]12 [Compound 2] noted as 5.73 L/kg

----------
experimental-protocol: Oral pharmacokinetics and bioavailability in rats
Format: in vivo
assay-setup: male, Sprague Dawley, rat, plasma, po, 50 mg/kg, AUClast, male rats, 50 mg/kg PO, individual rat
measure-name: AUC(0-t) (ng·h/mL)
Write the answer as a number in ng·h/mL, unit excluded.

Lab book: AUC(0-t) of C[C@]12CC[C@H](n3ccnc3)CC1=CC[C@@H]1[C@@H]2CC[C@]2(C)C(n3cnc4ccccc43)=CC[C@@H]12 noted as 39700

----------
experimental-protocol: Intravenous pharmacokinetics in rats
Assay type: in vivo
assay-setup: female, Sprague Dawley, rat, plasma, iv, 1 mg/kg, Vz, female rats, 1 mg/kg IV, individual rat
measure-name: Vd (L/kg)
Write the answer as a number in L/kg, unit excluded.

Lab book: Vd of C[C@]12CC[C@H](n3ccnc3)CC1=CC[C@@H]1[C@@H]2CC[C@]2(C)C(n3cnc4ccccc43)=CC[C@@H]12 [Compound 2] noted as 4.93

----------
experimental-protocol: Oral pharmacokinetics and bioavailability in rats
Assay type: in vivo
assay-setup: female, Sprague Dawley, rat, plasma, po, 50 mg/kg, Cmax, female rats, 50 mg/kg PO, individual rat
measure-name: Cmax (ng/mL)
Write the answer as a number in ng/mL, unit excluded.

Lab book: Cmax of C[C@]12CC[C@H](n3ccnc3)CC1=CC[C@@H]1[C@@H]2CC[C@]2(C)C(n3cnc4ccccc43)=CC[C@@H]12 [Compound 2] noted as 4380

----------
experimental-protocol: Oral pharmacokinetics and bioavailability in rats
Format: in vivo
assay-setup: male, Sprague Dawley, rat, plasma, po, 10 mg/kg, CL/F, male rats, 10 mg/kg PO, GeoMean
measure-name: CL/F (mL/min/kg)
Write the answer as a number in mL/min/kg, unit excluded.

Lab book: CL/F of C[C@]12CC[C@H](n3ccnc3)CC1=CC[C@@H]1[C@@H]2CC[C@]2(C)C(n3cnc4ccccc43)=CC[C@@H]12 noted as 17.8

----------
experimental-protocol: Oral pharmacokinetics and bioavailability in rats
Type: in vivo
assay-setup: female, Sprague Dawley, rat, plasma, po, 10 mg/kg, CL/F, female rats, 10 mg/kg PO, individual rat
measure-name: CL/F (mL/min/kg)
Write the answer as a number in mL/min/kg, unit excluded.

Lab book: CL/F of C[C@]12CC[C@H](n3ccnc3)CC1=CC[C@@H]1[C@@H]2CC[C@]2(C)C(n3cnc4ccccc43)=CC[C@@H]12 noted as 2.58

----------
experimental-protocol: Oral pharmacokinetics and bioavailability in rats
Type: in vivo
assay-setup: female, Sprague Dawley, rat, plasma, po, 50 mg/kg, AUClast, female rats, 50 mg/kg PO, GeoMean
measure-name: AUC(0-t)

Lab book: AUC(0-t) of C[C@]12CC[C@H](n3ccnc3)CC1=CC[C@@H]1[C@@H]2CC[C@]2(C)C(n3cnc4ccccc43)=CC[C@@H]12 noted as 80000 ng·h/mL

----------
experimental-protocol: Intravenous pharmacokinetics in rats
Assay type: in vivo
assay-setup: female, Sprague Dawley, rat, plasma, iv, 1 mg/kg, AUCinf, female rats, 1 mg/kg IV, individual rat
measure-name: AUC(0-inf) (ng·h/mL)
Write the answer as a number in ng·h/mL, unit excluded.

Lab book: AUC(0-inf) of C[C@]12CC[C@H](n3ccnc3)CC1=CC[C@@H]1[C@@H]2CC[C@]2(C)C(n3cnc4ccccc43)=CC[C@@H]12 noted as 4130
